Values were extracted from PubChem BioAssay.

In this section we review reported composite z-score values for a set of compounds.
Target: Neurogenic locus notch homolog protein 2 (Homo sapiens)
Assay: Notch2 binders on small-molecule microarrays, primary screen, biochemical, small-molecule microarray, 635 nm fluorescence, stem cell growth factors (AID 1073)
Stated conditions: Notch2 binding, higher = more signal
Property label: composite z-score

1) C=CCC1=C[C@H]2[C@H]([C@@H]3C=C[C@]2(CC=C)C(=O)[C@]32CO2)[C@@]2(CO2)C1=O; 0.333
2) COC(=O)[C@@]1(Cc2ccc(OC)cc2)[C@H]2c3cc(C(=O)N(C)C)n(Cc4ccc(C)c(F)c4F)c3C[C@H]2CN1C(=O)c1ccccc1; 0.498
3) C=CCNC(=O)[C@H]1[C@@H]2C(=O)O[C@@H](c3ccccc3)[C@@H](c3ccccc3)N2[C@@H](c2ccccc2OCCO)[C@]12C(=O)N(C(=O)OCCOC)c1ccc(C#CCC(C(=O)OC)C(=O)OC)cc12; 1.34
4) CCOC(=O)C[C@H]1[C@H](OC(=O)c2cc3ccccc3oc2=O)[C@@H](NC(=O)C2CCCCC2)c2cc(OCCCO)ccc2N1C(=O)c1ccc2ccccc2n1; 0.432
5) COc1ccc(C(O)C2C=CC3C(=O)N(C)C(=O)C3N2N2CCCCC2)cc1OCc1ccccc1 (configuration not stated); 1.57
6) CN1CCC(CCCO)=CC1C1CC1 (configuration not stated); -1.13
7) COc1cc2c(cc1OC)CN(C(=O)[C@H]1[C@@H]3C(=O)O[C@@H](c4ccccc4)[C@@H](c4ccccc4)N3[C@@H](c3ccccc3OCCO)[C@]13C(=O)Nc1ccc(C#CC4(O)CCCCCC4)cc13)CC2; 1.1

###

Target: Torsin-1A (Homo sapiens)
Assay: torsin A binders from cell lysate, primary screen, small-molecule microarray, wild-type, 635/667 nm (AID 1149)
Stated conditions: COS7 hTOR1A-WT lysate, 635 nm fluorescence, higher = more signal
Label not fulfilled if composite z-score falls below -0.5; label fulfilled in every other case.

1) COC(=O)[C@@]1(Cc2ccccc2N=[N+]=[N-])N=C(c2ccc(OCCCO)cc2)O[C@H]1c1ccccc1CN=[N+]=[N-]; fulfilled
2) COC(=O)[C@@]1(Cc2ccccc2CN=[N+]=[N-])N=C(c2ccc(OCCCO)cc2)O[C@H]1c1ccccc1N=[N+]=[N-]; not fulfilled
3) CCCC=C(CCC)[C@@H](NC(=O)c1ccccc1)c1ccccc1; fulfilled
4) COC(=O)Cn1c(C(=O)N2CCCC2)cc2c1C[C@H]1CN(C(=O)c3ccccc3)[C@@](Cc3ccccc3)(C(=O)OC)[C@@H]21; not fulfilled
5) CCCC=C(CCC)[C@@H](NC(=O)c1ccc(C(F)(F)F)cc1)c1ccccc1; fulfilled
6) Cc1ccccc1C(O)C1C=CC2C(=O)N(c3ccccc3)C(=O)C2N1Nc1ccc(C#N)cc1 (stereo not drawn); fulfilled
7) COC(=O)C[C@H]1O[C@]2(C(=O)N(C)c3ccccc32)[C@@H](C)[C@@H]1[Si](C)(C)c1ccc(OC)cc1; fulfilled
8) C=CC(=O)O[C@@H](Cc1ccccc1)[C@H]1C2C=CCCC=C2CN1Cc1cccc(Cl)c1 (stereo partly drawn); fulfilled

###

Measured composite z-score values are reported for all entries that follow.
System: Plasmodium falciparum Sir2 (PF13_0152, Sir2A)
Assay: pfSir2 binders on small-molecule microarrays, primary screen, biochemical, small-molecule microarray, 635 nm fluorescence (AID 1098);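 note: score merges spot fluorescence intensity with its signal-to-noise ratio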
Stated conditions: small-molecule microarray binding, fluorescence 635 nm; higher = more signal
Property label: composite z-score

1. C[N+](C)(C)CCCCNC(=O)[C@H]1C[C@H]2C(=O)NCC(=O)N2[C@H]1c1cccc(OCCO)c1; 1.59
2. CCC#CCN(Cc1ccccc1Br)[C@H](/C=C/c1ccccc1)[C@@H](O)Cc1ccccc1; 0.193
3. C=CCC(OC(C)=O)[C@@H]1[C@@H](N(Cc2ccc(-c3ccccc3)cc2)C(=O)c2ccc(-c3ccccc3)cc2)c2cc(OCCCO)ccc2N1C(=O)Cc1ccc(OC)cc1 (some centres not stated); -0.322
4. Cc1ccc(S[C@]2(C(=O)NC(C)C)CC(=O)N(C3Cc4ccccc4C3)[C@@H]2c2ccc(CO)cc2)cc1; 1.24
5. COC(=O)c1ccc(C#CC(NP(=O)(c2ccccc2)c2ccccc2)c2ccccc2)cc1 (configuration not stated); -0.179
6. CCCC=C(CCC)[C@@H](NC(=O)c1ccc(C(F)(F)F)cc1)c1ccccc1; 0.658
7. C=CCNC(=O)[C@H]1[C@@H]2C(=O)O[C@@H](c3ccccc3)[C@@H](c3ccccc3)N2[C@@H](c2ccc(O)cc2)[C@]12C(=O)Nc1ccc(C#CCNC(N)=O)cc12; 1.5
